Numbers sourced from the supplement of paper PMC4862054.

- Test system: CAL-148
- ASSAY_DETAILS: normalised response (% of control), CellTiter-Glo; higher = more viable cells (100 = DMSO, 0 = benzethonium chloride kill control)
- ASSAY_SETUP: incubation time: 72 h
Would you please tag the item MET when its normalised response is 90% or above, and NOT MET when it is below?

>  <COMPOUND>
Cc1c(Cn2c(C)nc3c(C(=O)O)cc(N4CCOCC4)cc32)cccc1C(F)(F)F (1 nM)

>  <GROUP>
MET

$$$$
>  <COMPOUND>
Nc1cccc2c1CN(C1CCC(=O)NC1=O)C2=O (stereo unspecified) [Lenalidomide] (1 nM)

>  <GROUP>
MET

$$$$
>  <COMPOUND>
Cc1c(Cn2c(C)nc3c(C(=O)O)cc(N4CCOCC4)cc32)cccc1C(F)(F)F (10 nM)

>  <GROUP>
MET

$$$$
>  <COMPOUND>
O=C(CCBr)N1CCN(C(=O)CCBr)CC1 [Pipobroman] (10 nM)

>  <GROUP>
MET

$$$$
>  <COMPOUND>
Cc1cccc(-c2nn3c(c2-c2ccnc4ccc(C(N)=O)cc24)CCC3)n1 [Galunisertib] (1 nM)

>  <GROUP>
MET

$$$$
>  <COMPOUND>
O=C(Nc1c[nH]nc1-c1nc2ccc(CN3CCOCC3)cc2[nH]1)NC1CC1 [AT9283] (0.1 nM)

>  <GROUP>
MET

$$$$
>  <COMPOUND>
O=C(Nc1c[nH]nc1-c1nc2ccc(CN3CCOCC3)cc2[nH]1)NC1CC1 [AT9283] (100 nM)

>  <GROUP>
NOT MET

$$$$
>  <COMPOUND>
O=C1c2c(O)ccc(O)c2C(=O)c2c(NCCNCCO)ccc(NCCNCCO)c21 [Mitoxantrone] (0.1 nM)

>  <GROUP>
MET

$$$$
>  <COMPOUND>
CS(=O)(=O)N1CCN(Cc2cc3nc(-c4cccc5[nH]ncc45)nc(N4CCOCC4)c3s2)CC1 [Pictilisib] (1000 nM)

>  <GROUP>
NOT MET

$$$$
>  <COMPOUND>
Cc1nc(Nc2ncc(C(=O)Nc3c(C)cccc3Cl)s2)cc(N2CCN(CCO)CC2)n1 [Dasatinib] (0.1 nM)

>  <GROUP>
MET

$$$$
>  <COMPOUND>
CNC(=O)c1cc(Oc2ccc(NC(=O)Nc3ccc(Cl)c(C(F)(F)F)c3)cc2)ccn1 [Sorafenib] (100 nM)

>  <GROUP>
MET

$$$$
>  <COMPOUND>
CC(C)N(CCCNC(=O)Nc1ccc(C(C)(C)C)cc1)C[C@H]1O[C@@H](n2cc(Br)c3c(N)ncnc32)[C@H](O)[C@@H]1O [SGC0946] (1 nM)

>  <GROUP>
MET

$$$$
>  <COMPOUND>
COc1nc(N)nc2c1ncn2[C@@H]1O[C@H](CO)[C@@H](O)[C@@H]1O [Nelarabine] (1 nM)

>  <GROUP>
NOT MET

$$$$
